- study.target: CTSC in U937 cells (Homo sapiens (Human), UniProt P53634)
- Sequence (P53634 25-463): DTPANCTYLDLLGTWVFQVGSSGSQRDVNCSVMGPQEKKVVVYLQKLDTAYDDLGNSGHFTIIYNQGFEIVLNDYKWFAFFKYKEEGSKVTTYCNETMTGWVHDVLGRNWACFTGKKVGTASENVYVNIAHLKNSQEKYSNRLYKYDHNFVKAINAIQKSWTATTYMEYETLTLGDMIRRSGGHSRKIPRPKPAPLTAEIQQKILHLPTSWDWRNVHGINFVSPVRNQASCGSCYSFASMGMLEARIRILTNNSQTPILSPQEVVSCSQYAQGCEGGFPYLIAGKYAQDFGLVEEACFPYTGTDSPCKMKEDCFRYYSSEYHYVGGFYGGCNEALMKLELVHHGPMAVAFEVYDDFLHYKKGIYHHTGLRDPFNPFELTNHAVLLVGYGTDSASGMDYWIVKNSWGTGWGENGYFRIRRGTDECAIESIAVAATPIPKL
- test.details: Intracellular CTSC inhibition assay (in vitro), LLOMe-induced cell death in U937 cells
- Type: cell-based
- test.context: 3 hours culture, CellTiter-Glo
# note: exactly 2 nM is not below, so it is rule not met; use rule met for IC50 strictly under it

{"compound": "O=C([C@@H]1C[C@@H](O)C2(CCC2)CN1)N1CCC(c2noc(C3CC(F)(F)C3)n2)(c2nccs2)CC1 [Example 68]", "cat": "rule not met"}
{"compound": "CS[C@@H]1CN[C@H](C(=O)N2CCC(c3noc(C4CCC(F)(F)CC4)n3)(C(C)C)CC2)C1 [Example 28]", "cat": "rule not met"}
{"compound": "CC(C)C1(c2noc(C3CCC(F)(F)CC3)n2)CCN(C(=O)[C@@H]2C[C@H](S(C)(=O)=O)CN2)CC1 [Example 30]", "cat": "rule not met"}
{"compound": "CC(C)C1(c2noc(C3CCC(F)(F)CC3)n2)CCN(C(=O)[C@H]2N[C@H]3CC[C@@H]2[C@H](O)C3)CC1 [Example 38]", "cat": "rule not met"}
{"compound": "CC(C)C1(c2noc(C3CCC(F)(F)CC3)n2)CCN(C(=O)[C@@H]2C[C@@H](O)CCN2)CC1 [Example 34]", "cat": "rule not met"}
{"compound": "O=C([C@@H]1C[C@@H](O)C2(CCC2)CN1)N1CCC(c2noc(C3CCCO3)n2)(C(F)(F)F)CC1 (stereo partly shown) [Example 62]", "cat": "rule met"}
{"compound": "O=C([C@@H]1C[C@@H](O)C2(CCC2)CN1)N1CCC(c2nccc(-c3ccc(F)cc3)n2)CC1 [Example 101]", "cat": "rule met"}
